Taken from BindingDB's records for doi:10.3109/14756366.2010.543420.

Beta-secretase 1 (Homo sapiens, UniProt P56817): reported pIC50 for various compounds.
Sequence (P56817 whole entry): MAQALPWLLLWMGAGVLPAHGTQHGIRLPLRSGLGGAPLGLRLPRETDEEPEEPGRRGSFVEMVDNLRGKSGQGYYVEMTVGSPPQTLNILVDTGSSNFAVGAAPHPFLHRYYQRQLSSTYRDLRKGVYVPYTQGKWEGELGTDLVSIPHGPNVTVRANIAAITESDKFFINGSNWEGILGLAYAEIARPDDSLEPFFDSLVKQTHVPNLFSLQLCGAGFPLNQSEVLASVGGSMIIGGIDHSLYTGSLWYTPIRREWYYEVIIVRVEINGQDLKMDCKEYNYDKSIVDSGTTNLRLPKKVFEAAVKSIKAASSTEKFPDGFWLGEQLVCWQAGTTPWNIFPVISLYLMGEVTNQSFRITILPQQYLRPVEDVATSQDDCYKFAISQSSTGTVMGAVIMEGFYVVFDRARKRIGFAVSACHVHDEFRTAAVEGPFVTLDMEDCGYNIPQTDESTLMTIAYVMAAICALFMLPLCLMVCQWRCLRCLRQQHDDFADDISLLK
pIC50: −log10 of the molar value.
Property measured: pIC50

Reference set, count: 3
* O=C(/C=C/c1ccc(O)c(O)c1)c1ccc(O)cc1O | 5.63
* O=C(/C=C/c1ccccc1O)c1cc(O)cc(O)c1 | 4.71
* O=C(/C=C/c1cccc(O)c1)c1ccc(O)cc1O [(E)-3,2'',4''-Trihydroxychalcone] | 5.10

a: O=C(/C=C/c1ccccc1O)c1ccc(O)c(O)c1
b: O=C(/C=C/c1ccc(O)cc1O)c1ccc(O)cc1O [2,2',4,4'-tetrahydroxychalcone]
Between a and b , whose measured pIC50 reads higher? API: response body contains the label of the selected item.
b
(b: 6.21, a: 4.93)

A: O=C(/C=C/c1c(O)cccc1O)c1ccc(O)cc1O
B: O=C(/C=C/c1ccccc1O)c1cccc(O)c1O
Of the pair A and B , name the member with the lesser recorded pIC50. API: response body contains the label of the selected item.
B
(B: 4.66, A: 5.77)

P: O=C(/C=C/c1ccccc1O)c1cccc(O)c1
Q: O=C(/C=C/c1ccccc1O)c1ccc(O)cc1O [2,2'',4''-Trihydroxychalcone]
Between P and Q , whose measured pIC50 reads higher? API: response body contains the label of the selected item.
Q
